Molecular target: UniProt P00742
Sequence (P00742 235-488 limits assumed): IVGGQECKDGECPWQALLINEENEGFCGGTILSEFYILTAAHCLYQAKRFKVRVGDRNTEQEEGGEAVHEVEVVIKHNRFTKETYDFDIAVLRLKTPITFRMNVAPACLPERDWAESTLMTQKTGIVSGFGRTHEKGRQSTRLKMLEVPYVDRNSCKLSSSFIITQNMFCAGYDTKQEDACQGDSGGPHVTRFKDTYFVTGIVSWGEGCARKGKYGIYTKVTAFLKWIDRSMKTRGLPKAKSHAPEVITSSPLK
Sequence (P00742 41-179 limits assumed): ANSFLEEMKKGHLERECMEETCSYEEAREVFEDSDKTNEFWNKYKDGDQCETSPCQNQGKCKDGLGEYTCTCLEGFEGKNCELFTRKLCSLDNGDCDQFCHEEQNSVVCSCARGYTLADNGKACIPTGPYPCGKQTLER
property label: IC50 (µM)
Give bare numbers, in µM.

Data request: State, for UniProt P00742, measured IC50 of the molecule listed here: COC(=O)c1cc(N)cc(-c2ncc(NC(C)C)c(=O)n2CC(=O)NCc2ccc(C(=N)N)cc2)c1 [Example 20]
Data returned: 85
